Here is a set of compounds with reported pIC50 for UniProt:O60502, compiled from the literature.
pIC50: −log10 of the molar value.

Solved cases below.
compound	pIC50
Cc1cc(N2CCC3(CCN(C(C)c4ccc5scnc5c4)CC3)C2)n2nccc2n1 (racemic)	6.00 to 6.70
Cc1cc(-c2cnn(C)c2)ccc1CN1CCCC1c1ccc2c(c1)OCCO2 (racemic)	6.70 to 7.30
CC(C)Oc1ccc2c(c1)CCN(C(C)c1ccc3scnc3c1)CC2 (racemic)	6.70 to 7.30

Task: Give the observed pIC50 of CCCCCCN1[C@H](CC(=O)NC)[C@H](O)[C@@H](O)[C@@H]1CO for UniProt:O60502.
Result: 5.22

Task: Give the observed pIC50 of CC(c1ccc2scnc2c1)N1CCC2(CC1)C(=O)N(Cc1ccc(S(C)(=O)=O)cc1)C(=O)N2C (racemic) for UniProt:O60502.
Result: 5.00 to 6.00

Task: Give the observed pIC50 of CC(c1ccc2scnc2c1)N1CCc2cnc(N)nc2CC1 (racemic) for UniProt:O60502.
Result: > 7.30

Task: Give the observed pIC50 of CCCCCCN1[C@H](CC(=O)NCCO)[C@H](O)[C@H](O)[C@H]1CO for UniProt:O60502.
Result: 3.67

Task: Give the observed pIC50 of Cc1cc(CN2C(=O)NC3(CCN(C(C)c4ccc5scnc5c4)CC3)C2=O)ccn1 (racemic) for UniProt:O60502.
Result: 6.70 to 7.30
